experiment: protein stability index of a GFP-peptide fusion (yeast GPS) (PSI 1-4); higher = more stable; sorted into four equal gates, so the index is relative within each strain; conditions: pdr5∆
Collected protein stability index values appear next to each entry.
OUTCOME_MEASURE: protein stability index

>  <SEQUENCE>
DDDDDEDEEEEEEVTDQ [QCR6]

>  <TEST_VALUE>
3.73

$$$$
>  <SEQUENCE>
MTYKNKLTVCFDDILKV [MED2]

>  <TEST_VALUE>
2

$$$$
>  <SEQUENCE>
IEKWTANLLPARQFGYV [RPS22A]

>  <TEST_VALUE>
1.92

$$$$
>  <SEQUENCE>
IVMEDHGVLQGTSQNYG [MED1]

>  <TEST_VALUE>
3.02

$$$$
>  <SEQUENCE>
DVNDVLTKYIRSKNLIF [GRR1]

>  <TEST_VALUE>
2.78

$$$$
>  <SEQUENCE>
IAGVITRSKRLSQVYPT [CSN12]

>  <TEST_VALUE>
2.84

$$$$
>  <SEQUENCE>
NISIITLELESFLEGSK [RGR1]

>  <TEST_VALUE>
2.48

$$$$
>  <SEQUENCE>
SANVELFKRDCNQMENL [YCS4]

>  <TEST_VALUE>
3.35

$$$$
>  <SEQUENCE>
KIINKPNELSQILTVDP [RPC82]

>  <TEST_VALUE>
2.56

$$$$
>  <SEQUENCE>
TGAASNQSSFNFGNNGA [YOR098C/NUP1]

>  <TEST_VALUE>
2.79

$$$$
>  <SEQUENCE>
KIAVLNNDKREIQEELE [SMC1]

>  <TEST_VALUE>
3.37

$$$$
>  <SEQUENCE>
LALMTAHSLSPKDYIKK [CDC53]

>  <TEST_VALUE>
3.03

$$$$
>  <SEQUENCE>
VESPDKNVRFRVLQLLA [YCG1]

>  <TEST_VALUE>
1.4

$$$$
>  <SEQUENCE>
RFKVVKVSGVSLLALWK [RPS23A]

>  <TEST_VALUE>
1.59

$$$$
>  <SEQUENCE>
IIKDYVLDIVPGSSITE [SRB4]

>  <TEST_VALUE>
2.58

$$$$
>  <SEQUENCE>
SLIIDQQENSKSGKRKP [RPC31]

>  <TEST_VALUE>
2.7

$$$$
>  <SEQUENCE>
DKINQLSVVKYLLASLK [RPN9]

>  <TEST_VALUE>
2.15

$$$$
>  <SEQUENCE>
AGAGEANGTVVSFIKNG [MTR3]

>  <TEST_VALUE>
2.53

$$$$
>  <SEQUENCE>
IAHENEQKWLIYDKKDH [SRB8]

>  <TEST_VALUE>
2.83

$$$$
>  <SEQUENCE>
QKVLNAHRQRAMEARSS [SMC4]

>  <TEST_VALUE>
2.36

$$$$
>  <SEQUENCE>
LYTLAQETEGTNRHTLA [SIR3]

>  <TEST_VALUE>
2.09

$$$$
>  <SEQUENCE>
VSLCAKNMGLVPMKEEN [SSN2]

>  <TEST_VALUE>
2.38

$$$$
>  <SEQUENCE>
VQEMALGGPITKESQPT [FAS2]

>  <TEST_VALUE>
2.72

$$$$
>  <SEQUENCE>
AVFKIVLQPLLPRELPK [SNU114]

>  <TEST_VALUE>
1.76

$$$$
>  <SEQUENCE>
NDLRVSLNEKNALHTER [SMC1]

>  <TEST_VALUE>
3.24

$$$$
>  <SEQUENCE>
KNYDATDKPFSSTQDVI [CSI1]

>  <TEST_VALUE>
2.96

$$$$
>  <SEQUENCE>
WNLLRSLYIFFTTLLES [YML103C/NUP188]

>  <TEST_VALUE>
1.58

$$$$
>  <SEQUENCE>
ISAPSMEDEILSLGMDF [BRN1]

>  <TEST_VALUE>
3.23

$$$$
>  <SEQUENCE>
NASANSTSFSFNAPATG [YOR098C/NUP1]

>  <TEST_VALUE>
2.94

$$$$
>  <SEQUENCE>
PIVIIFRALGIIPDGEI [RPB2]

>  <TEST_VALUE>
1.79

$$$$
>  <SEQUENCE>
KESWDPNTTKTKLRAFV [YGR119C/NUP57]

>  <TEST_VALUE>
2.93

$$$$
>  <SEQUENCE>
LIKTLSTLHMLGYTHIA [RPP1]

>  <TEST_VALUE>
2.65

$$$$
>  <SEQUENCE>
VSDSNDDVRRAAVIALG [RPN2]

>  <TEST_VALUE>
3.26

$$$$
>  <SEQUENCE>
NNSEQDQEIVIQQLHSV [ISW2]

>  <TEST_VALUE>
2.59

$$$$
>  <SEQUENCE>
RIMSTRCMMAAQYFYSG [DIS3]

>  <TEST_VALUE>
1.95

$$$$
>  <SEQUENCE>
SRGAVSGQKAGLIAARR [RPL2A]

>  <TEST_VALUE>
3.32

$$$$
>  <SEQUENCE>
KTKKEKGPNEEEKKKEH [RPN2]

>  <TEST_VALUE>
3.32

$$$$
>  <SEQUENCE>
IEEHPTVVDAIDNSDEI [IRR1]

>  <TEST_VALUE>
3.12

$$$$
>  <SEQUENCE>
IREKVAKQALDLYHFAL [SNF2]

>  <TEST_VALUE>
2.64

$$$$
>  <SEQUENCE>
SVRLQRFYQLGVDLKLK [CSN12]

>  <TEST_VALUE>
3.13

$$$$
>  <SEQUENCE>
FDQSTNVKVIMATNRAD [RPT3]

>  <TEST_VALUE>
2.15

$$$$
>  <SEQUENCE>
LVAKLKKVKSASKKSGG [SMC4]

>  <TEST_VALUE>
2.62

$$$$
>  <SEQUENCE>
IEKSRLFSEKTIRYLMQ [SNF6]

>  <TEST_VALUE>
2.29

$$$$
>  <SEQUENCE>
SAAGNKAIPTFSFGKPF [YIL149C/MLP2]

>  <TEST_VALUE>
2.86

$$$$
>  <SEQUENCE>
SESKQLGNTSSVANTPS [SWI3]

>  <TEST_VALUE>
2.56

$$$$
>  <SEQUENCE>
AYFMVGAMGLLSSAGAK [RIP1]

>  <TEST_VALUE>
2.51

$$$$
>  <SEQUENCE>
MLKQHLFKYQGHIGAYL [PUP1]

>  <TEST_VALUE>
2.34

$$$$
>  <SEQUENCE>
KLLSLLRSKTSAGRIES [SIR4]

>  <TEST_VALUE>
2.17

$$$$
>  <SEQUENCE>
YQKEYETAERNIIQAKR [RPL7A]

>  <TEST_VALUE>
2.75

$$$$
>  <SEQUENCE>
HLERNRKDKDAKFRLIL [RPS13]

>  <TEST_VALUE>
3.06

$$$$
>  <SEQUENCE>
GSLNATNFSPTPANNGE [SNF2]

>  <TEST_VALUE>
3.07

$$$$
>  <SEQUENCE>
PYLLETYANVLIPCKYL [RPN7]

>  <TEST_VALUE>
1.43

$$$$
>  <SEQUENCE>
DDYDYVMYGTAYKFEEV [RPB8]

>  <TEST_VALUE>
2.89

$$$$
>  <SEQUENCE>
GTGKTMLVKAVANSTKA [RPT3]

>  <TEST_VALUE>
1.47

$$$$
>  <SEQUENCE>
EIVSDVKVVDAGNKVGQ [RPP0]

>  <TEST_VALUE>
3.59

$$$$
>  <SEQUENCE>
NPDDLMKAVRKVAEVKK [RPT4]

>  <TEST_VALUE>
3.4

$$$$
>  <SEQUENCE>
DIDLETYSFIDNDRFNV [YML103C/NUP188]

>  <TEST_VALUE>
2.54

$$$$
>  <SEQUENCE>
NNPLLLIVDVKQQGVGL [RPN8]

>  <TEST_VALUE>
1.87

$$$$
>  <SEQUENCE>
DKFPYKKLELPKYIDEL [SWP82]

>  <TEST_VALUE>
2

$$$$
>  <SEQUENCE>
ISPDPNLSIDEVAVPDR [RPO31]

>  <TEST_VALUE>
2.76

$$$$

// provenance: the supplement of paper PMC9732359
